# Measurement Protocol: NCI Yeast Anticancer Drug Screen. Data for the bub3 strain (AID 167)
# Measurement Setup: S. cerevisiae bub3 mutant strain, at 50.0 µM, active compounds read high
This is part of a sample that, as a whole, favours compounds with a hit. Of some 79,000 tested, about 15% had one in any assay.
Record form. Attribute: growth inhibition. Fill in for each entry.
Give the number; % is assumed, so skip it.

Item: C/C(N)=C\c1nc(=O)ccs1 | growth inhibition: 5.2

The value of growth inhibition measured for the molecule CCCCCCCCCCCCCC(=O)OCCCC turned out to be -52

CC(C)(C)NC(=O)NCCCl has a reported growth inhibition of 2.95

Consider CCCCC1=CC1(C#N)[N+](=O)[O-] (centres undefined) . Its measured growth inhibition is 17.3

Field growth inhibition (entry NC(=O)CC(Nc1ncc2c(n1)-c1ccccc1OC2)C(=O)O (centres undefined) ) reads -45.8

In plain terms, COc1ccc(C(=O)CCN(C)C)cc1 has a documented growth inhibition of -7.5

Input CSc1nc(NC2OCC(O)C(O)C2O)c(C(C)=O)c(=O)n1C (centres undefined) . Output growth inhibition: -33.4

For this molecule ( NC1=NC=N/C(=N\c2ccccn2)C1N (centres undefined) ), measured growth inhibition is -11.2

Kindly note the recorded growth inhibition for COc1ccc(N2C(=O)C3c4[nH]c5ccccc5c4C4CCC(C(C)(C)C)CC4C3C2=O)cc1OC (centres undefined) , which is 44.2

CC(C)CSC(C)C yielded growth inhibition of -6.9

The molecule O=C(CC(c1ccccc1)C1CCCN(c2ccccc2)S1(=O)=O)c1ccccc1 (centres undefined) showed growth inhibition equal to -3.05

Lab note: Cc1nnc2ncccn12 gave growth inhibition of 0.55

For this molecule ( O=C(/C=C/c1ccccc1)SCc1ccccc1 ), measured growth inhibition is -4.75

growth inhibition reading for Clc1ccc(N=Cc2ccccc2Cl)cc1 : 42
